Reference source: PubChem BioAssay (EPA / NIEHS)

# Read-out: Early growth response protein 1 (EGR1) transcription factor, EGR1 (gene 1958)
# assay info: LTEA_HepaRG_EGR1: Life Technologies and Expression Analysis (LTEA) Assay for Early growth response protein 1 (EGR1) transcription factor using HepaRG (AID 2283490)
# measurement context: mRNA level, 48 h; actives raise or lower the signal
The source made the active and inactive calls. How the source made its calls: active means hit-call score of the fitted dose curve at least 0.9, where 1 is the maximum; inactive means score below 0.9.
Outcomes: active, inactive

{"compound structure string": "CS(=O)(=O)c1ccc([C@@H](C[C@H]2CCC(=O)C2)C(=O)Nc2cnccn2)cc1Cl", "classification": "inactive"}
{"compound structure string": "Oc1ccc(O)cc1", "classification": "inactive"}
{"compound structure string": "CCCCCCC(C=O)=Cc1ccccc1", "classification": "inactive"}
{"compound structure string": "C/C=C/C=C/C(=O)O", "classification": "inactive"}
{"compound structure string": "CO[C@@H]1COCC[C@@H]1N[C@@H]1CC[C@@](C(=O)N2CCc3ncc(C(F)(F)F)cc3C2)(C(C)C)C1", "classification": "inactive"}
{"compound structure string": "CC(C)OC(=O)C(C)(C)Oc1ccc(C(=O)c2ccc(Cl)cc2)cc1", "classification": "inactive"}
{"compound structure string": "CCCCCCCC(=O)OC", "classification": "inactive"}
{"compound structure string": "O=C1OC(c2ccc(O)cc2)(c2ccc(O)cc2)c2ccccc21", "classification": "inactive"}
{"compound structure string": "c1ccc2occc2c1", "classification": "inactive"}
{"compound structure string": "COC(=O)CCC(=O)OC", "classification": "inactive"}
{"compound structure string": "CN(C)C(=O)NC1(c2ccccc2)CCN(CCC[C@]2(c3ccc(Cl)c(Cl)c3)CCCN(C(=O)c3ccccc3)C2)CC1", "classification": "active"}
{"compound structure string": "C/C=C/c1ccc(OC)cc1", "classification": "inactive"}

* * *

# System: rat Norepinephrine Transporter (NET), gene 83511
# assay info: NVS_TR_rNET: NovaScreen (NVS) Transporter Assay for rat Norepinephrine Transporter (NET) (AID 2283373)
Results filed as inconclusive are left out. Calls of active or inactive are those of the source. How the source made its calls: active means hit-call score of the fitted dose curve at least 0.9, where 1 is the maximum; inconclusive means response in the unintended direction; inactive means score below 0.9.
Outcomes: Yes for active, No for inactive

{"compound structure string": "CCc1nc(N)nc(N)c1-c1ccc(Cl)cc1", "classification": "Yes"}
{"compound structure string": "CSc1ccc(Oc2ccc(S(N)(=O)=O)cc2CN(C)C)cc1C", "classification": "Yes"}
{"compound structure string": "COc1ccc(OC(F)(F)F)cc1CN[C@H]1CCCN[C@H]1c1ccccc1", "classification": "Yes"}
{"compound structure string": "CN(C)CCCN1c2ccccc2Sc2ccc(Cl)cc21", "classification": "Yes"}
{"compound structure string": "Cc1cc(Cc2ccc(N)c(C)c2)ccc1N", "classification": "No"}

* * *

# assay info: APR_HepG2_MitoMass_72hr: Apredica 72-hour HepG2 Assay for Mitochondrial Mass (AID 2282924);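 further: MitoTracker Red CMXRos stain intensity per cell imaged as mitochondrial mass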
# measurement context: high-content imaging, actives raise or lower the signal
# Procedure: APR_HepG2_72hr is a cell-based, multiplexed-readout assay that uses HepG2, a human liver cell line, with measurements taken at 72 hours after chemical dosing in a 384-well plate.APR_HepG2_MitoMass_72hr is one of 10 assay component(s) measured or calculated from the APR_HepG2_72hr assay. […] This assay endpoint, APR_HepG2_MitoMass_72hr, was analyzed with bidirectional fitting relative to DMSO as the negative control and baseline of activity. […]
Active and inactive are the calls of the source. Rule for the calls: active = hit-call score of the fitted dose curve at least 0.9, where 1 is the maximum; inactive = score below 0.9.
Outcomes: True = active, False = inactive

{"compound": "C/C=C/C=C/C(=O)O", "classification": "True"}
{"compound": "O=[Si]=O", "classification": "False"}
{"compound": "Cc1ccc(C(C)(C)C)c(O)c1", "classification": "False"}
{"compound": "CO[C@@H]1COCC[C@@H]1N[C@@H]1CC[C@@](C(=O)N2CCc3ncc(C(F)(F)F)cc3C2)(C(C)C)C1", "classification": "False"}
{"compound": "O=C1NC(=O)C(c2ccccc2)(c2ccccc2)N1", "classification": "False"}
{"compound": "CCCCCCCCCCCCCCOS(=O)(=O)O", "classification": "True"}
{"compound": "CC(=O)S[C@H](C(=O)N[C@H]1Cc2ccccc2[C@H]2CCC[C@@H](C(=O)O)N2C1=O)C(C)C", "classification": "False"}
{"compound": "CC(C)c1cccc(C(C)C)c1NC(=O)NS(=O)(=O)c1cc(C(C)(C)O)co1", "classification": "False"}
{"compound": "COC(=O)[C@H]1[C@H]2C[C@@H]3c4[nH]c5cc(OC)ccc5c4CCN3C[C@H]2C[C@@H](OC(=O)c2cc(OC)c(OC)c(OC)c2)[C@@H]1OC", "classification": "True"}
{"compound": "CC1(C)C(=O)NC(=O)N1CO", "classification": "True"}
{"compound": "CCCCc1nc2cccnc2n1Cc1ccc(-c2ccccc2-c2nnn[nH]2)cc1", "classification": "True"}
{"compound": "CCc1cc(C2=C(C(=O)O)N(c3ccccc3C(F)(F)F)S(=O)(=O)c3ccccc32)cc2c1OCO2", "classification": "False"}
{"compound": "O=C1O[C@H]([C@H](O)CO)C(O)=C1O", "classification": "False"}
{"compound": "CN(C)C(=O)NC1(c2ccccc2)CCN(CC[C@@]2(c3ccc(F)c(F)c3)CN(C(=O)c3ccccc3)CCO2)CC1", "classification": "False"}
{"compound": "O=C(Oc1ccccc1)c1cccc(C(=O)Oc2ccccc2)c1", "classification": "False"}
{"compound": "O=C1c2c(O)cccc2Cc2cccc(O)c21", "classification": "False"}
{"compound": "COc1ccc(OC(F)(F)F)cc1CN[C@H]1CCCN[C@H]1c1ccccc1", "classification": "True"}
{"compound": "O=C(O)CC(O)(CC(=O)O)C(=O)O", "classification": "False"}
{"compound": "Cc1c(C)c2c(c(C)c1O)CCC(C)(COc1ccc(CC3SC(=O)NC3=O)cc1)O2 (centres undefined)", "classification": "True"}
{"compound": "O=C1OC(c2ccc(O)cc2)(c2ccc(O)cc2)c2ccccc21", "classification": "True"}
{"compound": "CSc1ccc(Oc2ccc(S(N)(=O)=O)cc2CN(C)C)cc1C", "classification": "False"}
{"compound": "CN(C)CCCN1c2ccccc2Sc2ccc(Cl)cc21", "classification": "False"}
{"compound": "N[C@@H](Cc1c[nH]c2ccccc12)C(=O)O", "classification": "False"}
{"compound": "NCCOCCOCCN", "classification": "True"}
{"compound": "CC1=C(C)S(=O)(=O)CCS1(=O)=O", "classification": "True"}
{"compound": "CC(=O)CC(c1ccccc1)c1c(O)c2ccccc2oc1=O (centres undefined)", "classification": "False"}
{"compound": "CC(=O)OC1CC(C)OC(C)O1 (centres undefined)", "classification": "False"}
{"compound": "CCCCC(CC)COC(=O)CCCCCCCC(=O)OCC(CC)CCCC (centres undefined)", "classification": "False"}
{"compound": "CC(N)=O", "classification": "False"}
{"compound": "CCCCOC(=O)CCCCC(=O)OCCCC", "classification": "False"}
{"compound": "NC=O", "classification": "False"}
{"compound": "CCc1nc(N)nc(N)c1-c1ccc(Cl)cc1", "classification": "False"}
{"compound": "Cc1occc(=O)c1O", "classification": "False"}
{"compound": "OCC(O)CO", "classification": "False"}
{"compound": "O=C1CCCCC1", "classification": "False"}
{"compound": "Cc1cc(Cc2ccc(N)c(C)c2)ccc1N", "classification": "True"}
{"compound": "Cc1ccc(-c2cc(C(F)(F)F)nn2-c2ccc(S(N)(=O)=O)cc2)cc1", "classification": "False"}
{"compound": "S=c1[nH]c2ccccc2s1", "classification": "False"}
{"compound": "CCOCCOCCO", "classification": "False"}
{"compound": "C#CC(O)C(CC)CCCC (centres undefined)", "classification": "False"}
{"compound": "CCCCCCC(C=O)=Cc1ccccc1", "classification": "False"}
{"compound": "CCCCCCC(CCCCCCCCCCC(=O)OCC(COC(C)=O)OC(C)=O)OC(C)=O (centres undefined)", "classification": "False"}
{"compound": "CC(=O)OCC(COC(C)=O)OC(C)=O", "classification": "False"}
{"compound": "CC(=O)O[C@]1(C(C)=O)CC[C@H]2[C@@H]3C=C(Cl)C4=CC(=O)[C@@H]5C[C@@H]5[C@]4(C)[C@H]3CC[C@@]21C", "classification": "False"}
{"compound": "CCCCCCCCCCCCCCCCO", "classification": "False"}
{"compound": "CCCCC(CC)CO (centres undefined)", "classification": "False"}
{"compound": "Cn1cnc2c1c(=O)[nH]c(=O)n2C", "classification": "False"}
{"compound": "NC(=Nc1ccccc1)Nc1ccccc1", "classification": "False"}
{"compound": "CC(=O)O", "classification": "True"}
{"compound": "C/C=C/c1ccc(OC)cc1", "classification": "False"}
{"compound": "c1ccc2occc2c1", "classification": "True"}
{"compound": "O=C(O)c1[nH]n(-c2ccc(S(=O)(=O)O)cc2)c(=O)c1N=Nc1ccc(S(=O)(=O)O)cc1", "classification": "False"}
{"compound": "C=CCCCCCCCCCCCC", "classification": "False"}
{"compound": "CCCCC(CC)COP(=O)(OCC(CC)CCCC)OCC(CC)CCCC (centres undefined)", "classification": "False"}
